experiment: Solubility test in water and FaSSIF; assay type: physicochemical; details: thermodynamic from solid; FaSSIF (pH 6.5), 37° C., up to 24 hours; read-out: Solubility
value-type: Solubility (µg/mL)
Enter your answer as a number in µg/mL; do not include the unit.

Q. I am curious: what Solubility value has been reported for CC(C)(O)[C@@H]1CC[C@@](C)([C@H]2[C@@H](O)C[C@@]3(C)[C@@H]4C[C@H](OC(=O)COCCOCCOCCOCCOCCO)[C@H]5C(C)(C)C(F)(F)CC[C@@]56C[C@@]46CC[C@]23C)O1 [Compound 2-14] ?
A. 2310

Q. GET /values?readout=Solubility&item= CC(C)(O)[C@@H]1CC[C@@](C)([C@H]2[C@@H](O)C[C@@]3(C)[C@@H]4C[C@H](OC(=O)COCCOCCO)[C@H]5C(C)(C)C(F)(F)CC[C@@]56C[C@@]46CC[C@]23C)O1 [Compound 2-12]
A. 1110

Q. What value of Solubility has been reported for the following compound? CC(C)(O)[C@@H]1CC[C@@](C)([C@H]2[C@@H](O)C[C@@]3(C)[C@@H]4C[C@H](OC(=O)COCCO)[C@H]5C(C)(C)C(F)(F)CC[C@@]56C[C@@]46CC[C@]23C)O1 [Compound 2-11]
A. 1050

Q. Which Solubility is listed for CC(C)(O)[C@@H]1CC[C@@](C)([C@H]2[C@@H](O)C[C@@]3(C)[C@@H]4C[C@H](OP(=O)(O)O)[C@H]5C(C)(C)C(F)(F)CC[C@@]56C[C@@]46CC[C@]23C)O1 [Compound 11] ?
A. 3200

* * *

test: Solubility test in water and FaSSIF; assay type: physicochemical; conditions: Water, 37° C., up to 24 hours
// values below are reported log10 of Solubility
Plainly stated, the numbers are log10 of Solubility given in µg/mL.

Below, 5 molecules whose answers are already recorded.
# molecule, log10 of Solubility
data = [
    ("CC(C)(O)[C@@H]1CC[C@](C)([C@H]2[C@@H](O)C[C@@]3(C)[C@@H]4C[C@H](O)[C@H]5C(C)(C)[C@@H](O)CC[C@@]56C[C@@]46CC[C@]23C)O1 [Compound 5, reference compound]", 0.90),
    ("Br.CC(C)(O)[C@@H]1CC[C@@](C)([C@H]2[C@@H](O)C[C@@]3(C)[C@@H]4C[C@H](OC(=O)[C@@H](N)CC(N)=O)[C@H]5C(C)(C)C(F)(F)CC[C@@]56C[C@@]46CC[C@]23C)O1", 2.95),
    ("CC(C)(O)C1CCC(C)(C2C(O)CC3(C)C4CC(OC(=O)C5CCNCC5)C5C(C)(C)C(F)(F)CCC56CC46CCC23C)O1.Cl (stereo not shown)", 2.94),
    ("CC(C)(O)[C@@H]1CC[C@@](C)([C@H]2[C@@H](O)C[C@@]3(C)[C@@H]4C[C@H](OC(=O)CNC(=O)[C@@H](N)CO)[C@H]5C(C)(C)C(F)(F)CC[C@@]56C[C@@]46CC[C@]23C)O1.Cl", 3.22),
    ("CC(C)(O)[C@@H]1CC[C@@](C)([C@H]2[C@@H](O)C[C@@]3(C)[C@@H]4C[C@H](OC(=O)COCCOCCOCCN)[C@H]5C(C)(C)C(F)(F)CC[C@@]56C[C@@]46CC[C@]23C)O1.O=C(O)C(F)(F)F", 3.31),
]

Q. Param item = CC(O)C(N)C(=O)OC1CC2C3(C)CC(O)C(C4(C)CCC(C(C)(C)O)O4)C3(C)CCC23CC32CCC(F)(F)C(C)(C)C12.Cl (stereo not shown) ; retrieve measured log10 of Solubility.
A. 3.08

Q. Which value of log10 of Solubility has been reported for `CC(C)C[C@H](N)C(=O)O[C@H]1C[C@@H]2[C@]3(CC[C@]4(C)[C@@H]([C@]5(C)CC[C@@H](C(C)(C)O)O5)[C@@H](O)C[C@@]24C)C[C@@]32CCC(F)(F)C(C)(C)[C@H]12.Cl` in the records?
A. 2.78

* * *

assay: Pharmacokinetics of parent HHQ16 after single intragastric administration of compound 2 prodrugs in rats; assay type: in vivo, rat; settings: HHQ16 (parent) measured in rats after single intragastric 10 mg/kg of prodrug (dose converted to HHQ16)
# note: boundary value 4000 ng·h/mL maps to no; AUC0-t below it maps to yes

# molecule, discrete-label
measured = [
    ("CN(CC(=O)OC1CC2C3(C)CC(O)C(C4(C)CCC(C(C)(C)O)O4)C3(C)CCC23CC32CCC(F)(F)C(C)(C)C12)C(=O)C(N)Cc1ccccc1.Cl (centres unmarked) [Compound 2-28]", "no"),
    ("CC(N)C(=O)N(C)CC(=O)OC1CC2C3(C)CC(O)C(C4(C)CCC(C(C)(C)O)O4)C3(C)CCC23CC32CCC(F)(F)C(C)(C)C12.Cl (centres unmarked) [Compound 2-29]", "no"),
    ("CC(C)(O)[C@@H]1CC[C@@](C)([C@H]2[C@@H](O)C[C@@]3(C)[C@@H]4C[C@H](OC(=O)C[C@H]5CCCN5)[C@H]5C(C)(C)C(F)(F)CC[C@@]56C[C@@]46CC[C@]23C)O1.Cl [Compound 2-3]", "yes"),
]

We now examine a further molecule.
Q. Quick check: AUC0-t of CC(C)(O)[C@@H]1CC[C@@](C)([C@H]2[C@@H](O)C[C@@]3(C)[C@@H]4C[C@H](OC(=O)CNC(=O)CN)[C@H]5C(C)(C)C(F)(F)CC[C@@]56C[C@@]46CC[C@]23C)O1.Cl [Compound 2-27] under 4000 ng·h/mL?
A. yes

* * *

assay: Plasma pharmacokinetics after single intravenous injection in rats; assay type: in vivo; settings: female, rat, rats ♀, intravenous 2 mg/kg, Mean ± SD
value-type: AUC(0-inf) (ng·h/mL)
Report the value in ng·h/mL with no unit label.

Q. Which AUC(0-inf) value is on record for `CC(C)(O)[C@@H]1CC[C@](C)([C@H]2[C@@H](O)C[C@@]3(C)[C@@H]4C[C@H](O)[C@H]5C(C)(C)C(F)(F)CC[C@@]56C[C@@]46CC[C@]23C)O1` ?
A. 2250

* * *

assay: Plasma pharmacokinetics after single intragastric administration in rats; type: in vivo, SD rat; details: female, rat, plasma, po; rats ♀, single gavage 10 mg/kg, Mean ± SD
value-type: AUC(0-inf)

Q. So what does the record say about AUC(0-inf) for `CC(C)(O)[C@@H]1CC[C@](C)([C@H]2[C@@H](O)C[C@@]3(C)[C@@H]4C[C@H](O)[C@H]5C(C)(C)C(F)(F)CC[C@@]56C[C@@]46CC[C@]23C)O1` ?
A. 4040 ng·h/mL

* * *

assay: Plasma pharmacokinetics after single intragastric administration in rats; assay type: in vivo, SD rat; settings: male, rat, plasma, po; rats ♂, single gavage 10 mg/kg, Mean ± SD
value-type: AUC(0-inf) (ng·h/mL)
Report the value in ng·h/mL with no unit label.

Q. Consider the molecule CC(C)(O)[C@@H]1CC[C@](C)([C@H]2[C@@H](O)C[C@@]3(C)[C@@H]4C[C@H](O)[C@H]5C(C)(C)C(F)(F)CC[C@@]56C[C@@]46CC[C@]23C)O1 [Compound 2] and give its measured AUC(0-inf).
A. 859

* * *

experiment: Plasma pharmacokinetics after single intravenous injection in rats; type: in vivo; details: female, rat, rats ♀, intravenous 2 mg/kg, Mean ± SD
value-type: half-life

Q. Could you share which half-life value was measured for `CC(C)(O)[C@@H]1CC[C@](C)([C@H]2[C@@H](O)C[C@@]3(C)[C@@H]4C[C@H](O)[C@H]5C(C)(C)C(F)(F)CC[C@@]56C[C@@]46CC[C@]23C)O1` ?
A. 1.47 h

* * *

Experiment: Plasma pharmacokinetics after single intragastric administration in rats
Format: in vivo, SD rat
Conditions: both sexes, rat, plasma, po; all rats (♂ and ♀), single gavage 10 mg/kg, Mean ± SD; read-out: MRT0-∞
Procedure: Strain: SD rat; Gender: half male and female. Weight: about 200-250 g. Source: Shanghai Slac Laboratory Animal Co., Ltd. Laboratory Animal Production License No.: SOCK (Shanghai) 2017-0005. Laboratory Animal Use License Certificate number: SYXK (Shanghai) 2014-0018. Breeding: constant temperature purification and ventilation animal room, 20-26° C., free food and water, humidity 40-70%, light for 12 h. Route A: single oral administration. Volume: calculated according to 10 mL/kg body weight. […]
value-type: MRT inf (h)
Please respond with the number in h and leave the unit unwritten.

Q. Bench note: what MRT inf did `CC(C)(O)[C@@H]1CC[C@](C)([C@H]2[C@@H](O)C[C@@]3(C)[C@@H]4C[C@H](O)[C@H]5C(C)(C)C(F)(F)CC[C@@]56C[C@@]46CC[C@]23C)O1` show?
A. 4.4

Origin of the recorded values: patent US20220177511A1
